// data source = the nanobody polyreactivity screen of Harvey et al. (2022)

experiment: yeast display, Sf9 membrane polyspecificity reagent, FACS + sequencing; frameworks hold sequencing errors
Measured attribute: polyreactivity (PSR sort gate)

[[record]]
residue_sequence = "QVQHVESGGGLDQGRGSLSLSCAASARNLSSNVLGRYRQAPGNETEFVASITYSGSSTYYADSVKGRFTISRDYAKNTFYLQMNSLKPEDTAVYYCATRYGYSDGDYWGQGTQVTVSS"
result = "low polyreactivity"

[[record]]
residue_sequence = "QVQLVESGVGLVQAGGSLRLSCAASGFIFWLYAMGWYRQAPGKERELVAGITRGGGSTYYADSVKRRFTISRDNAKNTVYLQMNSLKPEDTAVYYCAADAWSSYLDRPFDYWGQGTQVTVSS"
result = "high polyreactivity"

[[record]]
residue_sequence = "QVQLVESGGGLVQAGGSLRLSCAASGFIFSLYAMGWYRQAPGKERELVAGISESGGSTYYADSVKGRFTISRDNAKNTVYLQMNSLKPEDTAVYYCNADDTVYFIKAGDYWGQGTQVTVSS"
result = "high polyreactivity"

[[record]]
residue_sequence = "QVHLVESGGGLVQAGGILRLSCAASGFIYTKYTMGSYRQAPGKEREMVAAITGRGTSTYADSVKGRFTISRDNAKNSVYLQMNRLKPEDTAVYYCASVGWFADFMFSDINGYYWGQGTEVTVSS"
result = "low polyreactivity"

[[record]]
residue_sequence = "QVQLVESGGGLVQAGGSLRLSCAASGSILGDYAMGWYRQAPGSEREFVAAIDGSDGSTYYADSVKGRFTISRDNAKNTVYLQMNSLKPEDTAVYYCAATDYDTYRSSWYDYWGQGTQVTVSS"
result = "low polyreactivity"


====

assay: yeast display, Sf9 membrane polyspecificity reagent, FACS + sequencing; frameworks hold sequencing errors
Measured attribute: polyreactivity (PSR sort gate)

[[record]]
residue_sequence = "QVQLVESGGGLVQAGGSLRLSCAASGIILYYYVMVWYRQEPGKEREFVAAINRSGTSTYYADSVKGRFTISRDNAKNTVYLQMNSLKPADTAVYYCAAERYWSGGVFDYDYWGQGTQVTVSS"
measured_attribute = "polyreactivity (PSR sort gate)"
result = "high polyreactivity"

[[record]]
residue_sequence = "QVQLQESGGVQAGGSLRQSCAASGYISRSDVMGWYRQAPGKERELVATINNATITYYADSVKGRFTISRDNAKNTVYLQMNSLKPEDTAVHYFAVVQSDTDSLYYWGQGTQVTVSS"
measured_attribute = "polyreactivity (PSR sort gate)"
result = "low polyreactivity"

[[record]]
residue_sequence = "QVQLVESGGGLVQAGGSLRLSCAASGRILRHNAMGWYRQAPGKERELVAAITRSGGRTYYADSVKGRFTISRDNAKNTVYLQMNSLKPEDTAVYDCAAGDYGWVPYNLRGSRMNYWGQGTQVTVSS"
measured_attribute = "polyreactivity (PSR sort gate)"
result = "high polyreactivity"

[[record]]
residue_sequence = "QVQLVESGGGLVQAGGSLRLSCAASGRTFGYYAMGWYRQAPGKERELVATITWSGGSTYYADSVKGRFTISRDNAKNTVYLQMNSLKPEDTAVYYCATDALYTYGYDYWGQGTQVTVSS"
measured_attribute = "polyreactivity (PSR sort gate)"
result = "low polyreactivity"

[[record]]
residue_sequence = "QVQLVESGGGVVQAGGSLRLSCAASGFTPGNVMGGYRQAPGKERELVAAISWTGDSTYYAASVKGRFTISRDNAKNTVYLQMNSLKPEDTAVYYCAADGVPGRALDYEYWGQGTQVTVSS"
measured_attribute = "polyreactivity (PSR sort gate)"
result = "high polyreactivity"

[[record]]
residue_sequence = "QVQLVDSGGGLVQAGGSLRLTCGSSGSIFYYYVMGLYIQAHGKERELVAAISSGGGTNYSDSVKGRFTISRYNAKNTVYLQMNSLKPEDTAVYYCAKASAYGLANDYDYCGQGTQVTVSS"
measured_attribute = "polyreactivity (PSR sort gate)"
result = "low polyreactivity"

[[record]]
residue_sequence = "QVQLVESGGGLVQAGGSLRLSCAASGRIFYRNAMGWYRQAPGKERELVAAIRGSGGRTYYADSVKGRFTISRDNAKNTVYLQMNSLKPEDTAVYYCAAYGYYVEHPRGLSGPYDDDYWGQGTQVTVSS"
measured_attribute = "polyreactivity (PSR sort gate)"
result = "low polyreactivity"

[[record]]
residue_sequence = "QVQLVESGGGLVQAGGRLRLSCAASGRIFSKNAMGWYRQAPGKERELVAVISARGGNTYYADSVKGRFTISRDNAKNTVYLQMNSLKPEDTAVYYCNTPRPYEITTREYYYWGQGTQVTVSS"
measured_attribute = "polyreactivity (PSR sort gate)"
result = "high polyreactivity"

[[record]]
residue_sequence = "QDQLVESGGGLVQAGGSLRLSCAASGSTFSYYAMGWYRQAPGKERELVAAITWSDGSTYYADSVKGRFTISRDYAKNTVYLQMNSLKPEDTAVYYCNAEISQLDGVTFKYDYWGQGTQVTVSS"
measured_attribute = "polyreactivity (PSR sort gate)"
result = "low polyreactivity"

[[record]]
residue_sequence = "QVQIVESGGGLVQAGGSLRLSCAASGSISVPYGMGWYRQAPGKERELVAAISGGSTNYADSVKGRFTISRDNAKNTVYLQMNSLKPEDTAVYFCAADWWAWYTRYDYWGQGSQVTVSS"
measured_attribute = "polyreactivity (PSR sort gate)"
result = "low polyreactivity"

[[record]]
residue_sequence = "QVQLVESGGGLVQAGGSLRLSCAASGSTSYWYAMGWYRQAPGKESELVATIRSRGGSTSYADSVKGRFTIARDNAKNTVYLQMNSLKPEDTAVNYCNTRKLYQVDYDYLGQGTQVTVSS"
measured_attribute = "polyreactivity (PSR sort gate)"
result = "high polyreactivity"

